Field: self-cleavage kobs at 160 uM GlcN6P. Provide a value for each of the variants that follow.
B1: glmS ribozyme (parent)
chain: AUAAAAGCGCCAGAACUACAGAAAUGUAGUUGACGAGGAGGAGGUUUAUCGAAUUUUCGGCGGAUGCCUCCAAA

variants of: B1; assay: self-cleavage kobs at 160 uM GlcN6P; higher = faster cleavage; RNA array; conditions: with glucosamine-6-phosphate
Fewer inactive variants are shown than the library holds.

Q) Give recorded self-cleavage kobs at 160 uM GlcN6P. C34G G63C
A) < 1e-05 s⁻¹

Q) Give recorded self-cleavage kobs at 160 uM GlcN6P. G35C G63C
A) < 1e-05 s⁻¹

Q) Give recorded self-cleavage kobs at 160 uM GlcN6P. C8A G59A
A) < 1e-05 s⁻¹

Q) Give recorded self-cleavage kobs at 160 uM GlcN6P. G9U A42G U46G
A) < 1e-05 s⁻¹

Q) Give recorded self-cleavage kobs at 160 uM GlcN6P. A15U U30G
A) 0.00242 s⁻¹

Q) Give recorded self-cleavage kobs at 160 uM GlcN6P. A64G C71U
A) 0.000417 s⁻¹

Q) Give recorded self-cleavage kobs at 160 uM GlcN6P. A15G U55C
A) 0.00212 s⁻¹

Q) Give recorded self-cleavage kobs at 160 uM GlcN6P. A14C A15C
A) 0.000103 s⁻¹

Q) Give recorded self-cleavage kobs at 160 uM GlcN6P. A15U C34G
A) < 1e-05 s⁻¹

Q) Give recorded self-cleavage kobs at 160 uM GlcN6P. G9C C10U G41A G43U
A) < 1e-05 s⁻¹

Q) Give recorded self-cleavage kobs at 160 uM GlcN6P. U46C U56G
A) 0.000159 s⁻¹

Q) Give recorded self-cleavage kobs at 160 uM GlcN6P. G44A U69A
A) < 1e-05 s⁻¹

Q) Give recorded self-cleavage kobs at 160 uM GlcN6P. C8A A53U U55C C58U U69C
A) < 1e-05 s⁻¹

Q) Give recorded self-cleavage kobs at 160 uM GlcN6P. G38C U56C
A) < 1e-05 s⁻¹

Q) Give recorded self-cleavage kobs at 160 uM GlcN6P. G41U U57G
A) < 1e-05 s⁻¹

Q) Give recorded self-cleavage kobs at 160 uM GlcN6P. G32U G51U A53U G66U C71U
A) < 1e-05 s⁻¹

Q) Give recorded self-cleavage kobs at 160 uM GlcN6P. C34U U54A U69G
A) 0.000126 s⁻¹

Q) Give recorded self-cleavage kobs at 160 uM GlcN6P. G51A G66A
A) < 1e-05 s⁻¹

Q) Give recorded self-cleavage kobs at 160 uM GlcN6P. G40C G59U
A) < 1e-05 s⁻¹

Q) Give recorded self-cleavage kobs at 160 uM GlcN6P. C10G G32U U69G
A) < 1e-05 s⁻¹

Q) Give recorded self-cleavage kobs at 160 uM GlcN6P. G32A G43A G63C
A) < 1e-05 s⁻¹

Q) Give recorded self-cleavage kobs at 160 uM GlcN6P. C10U G37A G63A
A) < 1e-05 s⁻¹
